Data credit: the supplement of paper PMC9694430

- Test system: LOC_OS01G52050-cb004
- Sequence (as listed by the source): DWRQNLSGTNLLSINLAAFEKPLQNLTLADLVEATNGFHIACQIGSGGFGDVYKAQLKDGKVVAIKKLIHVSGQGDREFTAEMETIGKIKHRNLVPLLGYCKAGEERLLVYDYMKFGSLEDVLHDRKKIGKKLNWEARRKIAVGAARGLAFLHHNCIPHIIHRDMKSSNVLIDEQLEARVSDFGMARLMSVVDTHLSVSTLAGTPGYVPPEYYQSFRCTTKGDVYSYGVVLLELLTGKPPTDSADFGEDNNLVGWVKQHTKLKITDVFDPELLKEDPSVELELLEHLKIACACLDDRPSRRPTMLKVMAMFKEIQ
- Assay name: thermal shift delta Tm vs DMSO control; higher = stronger stabilization (binding);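 further: purified Escherichia coli-expressed rice kinase domain construct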
- Condition context: 12.5 µM; protein concentration 2 µM
Measured quantity: thermal shift delta Tm (°C)
Please reply with the bare figure in °C and do not write the unit itself.

Recorded results for 3 compounds are shown here.
Compound	Measured quantity	Assay value
CN1c2ccccc2C(=O)Nc2cnc(Nc3ccc(N4CCC(O)CC4)cc3)nc21	thermal shift delta Tm	0.63
CNC(=O)c1ccccc1Nc1cc(Nc2ccc(N3CCOCC3)cc2OC)ncc1C(F)(F)F	thermal shift delta Tm	5.73
CNC(=O)Nc1ccc(-c2nc(N3CC4CCC(C3)O4)c3cnn(C4CCC5(CC4)OCCO5)c3n2)cc1	thermal shift delta Tm	0.38

// thermal shift delta Tm lookup, key: CC(C)CCN1c2nc(Nc3cc(F)c(O)c(F)c3)ncc2N(C)C(=O)C1C (configuration not stated)
5.38

Now consider CCN(CC)CCNC(=O)c1c(C)[nH]c(/C=C2\C(=O)Nc3ccc(F)cc32)c1C [Sunitinib Malate] .
7.04

Here is the next compound: Cc1cc(Nc2nc(N[C@@H](C)c3ccc(F)cc3)c(C#N)cc2F)n[nH]1
0.63

Input Cc1cc(C(=O)Nc2nc3cccc(Cl)c3n2[C@@H]2CCCCN(C(=O)/C=C/CN(C)C)C2)ccn1 [Nazartinib (EGF816, NVS-816)]
0.96

And what about the compound Cn1nccc1Nc1nccc(-c2ccn([C@H](CO)c3ccc(Cl)c(F)c3)c(=O)c2)n1 ?
0.85

Request: CC(=O)Nc1cccc(-n2c(=O)n(C3CC3)c(=O)c3c(Nc4ccc(I)cc4F)n(C)c(=O)c(C)c32)c1
0.63

Could you do the same for O=C(c1cccc(Cl)c1F)N1CCN(Cc2cccc(Nc3nccs3)n2)CC1 , please?
4.36

Next entry: C=CC(=O)Nc1cccc(Nc2nc(Nc3ccc(Oc4ccnc(C(=O)NC)c4)cc3)ncc2F)c1
3.1

Next: NC[C@@](O)(c1ccc(Cl)cc1)c1ccc(-c2cn[nH]c2)cc1
0.51

Next compound: O=c1cc(N2CCOCC2)oc2c(-c3cccc4c3sc3ccccc34)cccc12
-0.72

----------
thermal shift delta Tm by entry:
- Test system: LOC_OS05G30820-cb001
- Assay name: thermal shift delta Tm vs DMSO control; higher = stronger stabilization (binding)
- Condition context: 12.5 µM; protein concentration 2 µM
Counter-ions that a name gives are not always drawn.
Reply numerically in °C, unit not repeated.

Worked set:
> print(dat)
                                   compound         target.system       measured.quantity  uom  assay.value
1  Cc1ccccc1CN1C2=NCCN2C(=O)C2=C1CCN(Cc1ccccc1)C2  LOC_OS05G30820-cb001  thermal shift delta Tm   °C         0.36
2  Cn1cc(-c2ccc3nnc(C(F)(F)c4ccc5ncccc5c4)n3n2)cn1  LOC_OS05G30820-cb001  thermal shift delta Tm   °C         0.28

Data request, read-out thermal shift delta Tm, for O=C(Nc1cnn2ccc(N3CCC[C@@H]3c3cc(F)ccc3F)nc12)N1CC[C@H](O)C1 [Larotrectinib (LOXO-101) sulfate]
0.53

C=CC(=O)Nc1cc(Nc2nccc(-c3c[nH]c4ccccc34)n2)c(OC)cc1N(C)CCN(C)C ?
0.72
